test_protocol: Neutral Red Uptake cytotoxicity test
Assay type: cell-based
setup_conditions: mouse, Balb3T3 cells
recorded_metric: pIC50
Worth noting: pIC50 values are minus log10 of concentrations stated in mol/L.

What value of pIC50 has been recorded for this entry: C=CCSCC(N)C(=O)Oc1ccc(/C=C/c2cc(OC(=O)C(N)CSCC=C)cc(OC(=O)C(N)CSCC=C)c2)cc1.Cl.Cl.Cl (centres unmarked) [Example 1]
3.95
